- measured on: wt Shaker Kv channel (Shaker H4, Δ6-46) (Drosophila melanogaster, UniProt P08510, DEL6-46)
- Sequence (P08510 other isoform, or with tags, fused parts or gaps DEL6-46): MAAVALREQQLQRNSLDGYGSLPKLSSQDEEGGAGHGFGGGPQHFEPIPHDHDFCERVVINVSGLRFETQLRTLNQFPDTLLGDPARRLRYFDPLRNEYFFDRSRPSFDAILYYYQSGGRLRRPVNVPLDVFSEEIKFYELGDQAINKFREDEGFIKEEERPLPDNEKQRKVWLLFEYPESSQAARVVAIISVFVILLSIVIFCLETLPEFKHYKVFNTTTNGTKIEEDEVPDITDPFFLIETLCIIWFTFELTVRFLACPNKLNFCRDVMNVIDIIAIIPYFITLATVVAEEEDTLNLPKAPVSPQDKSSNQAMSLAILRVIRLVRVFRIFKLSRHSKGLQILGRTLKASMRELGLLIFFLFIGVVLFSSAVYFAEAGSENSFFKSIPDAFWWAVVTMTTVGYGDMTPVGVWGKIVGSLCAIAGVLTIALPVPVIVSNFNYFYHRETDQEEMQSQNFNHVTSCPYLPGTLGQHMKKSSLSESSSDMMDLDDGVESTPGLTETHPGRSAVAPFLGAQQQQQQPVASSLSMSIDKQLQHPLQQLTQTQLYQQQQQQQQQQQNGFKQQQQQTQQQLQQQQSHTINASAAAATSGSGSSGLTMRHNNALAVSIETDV
- assay procedure: Two-electrode voltage clamp, G(V) shift on wt Shaker Kv channel expressed in Xenopus laevis oocytes
- Type: cell-based
- test parameters: pH 10, 100 μM, mean
Exercise: for every item that follows, state its recorded G(V) shift.
Numbers only, in mV.

Field: example entries. Status: answers known.
CC(C)c1ccc2c(c1)CCC1[C@](C)(CCC(=O)O)CCC[C@]21C (some centres unmarked) | −3.83
CC(C)c1ccc2c(c1)CC[C@H]1[C@](C)(C(=O)NCCC(=O)O)CCC[C@]21C | −1.17
CC(C)c1ccc2c(c1)CC[C@H]1[C@](C)(C(=O)NCC(=O)O)CCC[C@]21C | −0.80
CC(C)c1ccc2c(c1)CC[C@H]1[C@](C)(C(=O)NCCCC(=O)O)CCC[C@]21C | −0.57

input: Requested read-out: G(V) shift. Entry: CC(C)c1ccc2c(c1)CCC1[C@](C)(CC(=O)O)CCC[C@]21C (some centres unmarked)
output: −2.40
